# target.or.system: T1, Mutant CD33-GFP M3 (N99A) on 293FT cells (UniProt P20138 18-364)
# T1 construct: whole, on cells; not shown: GFP fused to CD33
# T1 sequence (P20138 18-364 N99A): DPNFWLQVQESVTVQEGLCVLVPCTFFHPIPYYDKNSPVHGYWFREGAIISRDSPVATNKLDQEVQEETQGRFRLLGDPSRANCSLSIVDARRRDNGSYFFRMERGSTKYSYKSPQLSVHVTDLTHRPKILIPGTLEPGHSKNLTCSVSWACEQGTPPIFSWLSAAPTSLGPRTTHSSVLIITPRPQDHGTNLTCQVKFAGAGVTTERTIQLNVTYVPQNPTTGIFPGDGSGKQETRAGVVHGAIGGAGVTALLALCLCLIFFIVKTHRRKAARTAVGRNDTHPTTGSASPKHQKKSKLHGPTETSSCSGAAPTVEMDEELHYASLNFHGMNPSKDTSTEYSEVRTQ
# test.summary: FACS, mutant CD33-GFP on 293FT cells
Exercise: state measured FACS binding data for each of the binders provided.
API doc: respond with a numeric literal and nothing else, no unit.

QUERY: Using known records, supply FACS binding data for sdCD33_3 (VHH) VHH: DVQLVESGGGLVQPGGSLRLSCSVSGNIDRFYAMGWYRQAPGKQRELVAQLTNNEITTYGDSVEGQFSISGDFDANTVYLQMDSLKPEDTAVYYCHAHVTTTRWSQDYYWGQGTRVTVSS
RESULT: 99.4

QUERY: For the binder sdCD33_7 (VHH, sdAb from a naive llama phage library; also called 420; sdAb420) VHH: EVQLVESGGGLVQPGGSLRLSCVASGFTFKDYGMTWVRQAPGKALEWVSDINSAGDGIYYSDSVKGRFTISRDDSKGTLYLQMNSLTPEDTAIYYCAAERQRAGDVKRSLAPITAHIWGQGTQVTVSS , give its measured FACS binding data value.
RESULT: 98.9

QUERY: For the binder hu195 (antibody, V domains shown) VH: QVQLVQSGAEVKKPGSSVKVSCKASGYTFTDYNMHWVRQAPGQGLEWIGYIYPYNGGTGYNCIKFKSKATITADESTNTAYMELSSLRSEDTAVYYCARGRPAMDYWGQGTLVTVSS VL: DIQMTQSPSSLSASVGDRVTITCRASESVDNYGISFMNWFQQKPGKAPKLLIYAASNQGSGVPSRFSGSGSGTDFTLTISSLQPDDFATYYCQQSKEVPWTFGQGTKVEIK , report FACS binding data.
RESULT: 99.5
